- Test system: FXR:RXRa (NR concentration 270 nM, RXRa partner concentration 90 nM)
- experimentSummary: PBM binding z-score (relative to random genomic background probes); higher = stronger binding; sequences stand for … in GC…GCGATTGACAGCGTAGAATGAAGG
Please mark satisfied if the recorded PBM binding z-score is equal to or greater than 4, and not satisfied if it falls below.

Given TTTAGTTGGTCAAAGGTCACACACTCGAAATGCG , state whether its PBM binding z-score is at least 4.
satisfied

Moving on to the next sequence: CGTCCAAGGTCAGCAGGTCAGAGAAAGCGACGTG
satisfied

Moving on to the next sequence: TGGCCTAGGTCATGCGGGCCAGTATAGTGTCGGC
not satisfied

Moving on to the next sequence: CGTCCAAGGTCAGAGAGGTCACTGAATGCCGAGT
satisfied

Moving on to the next sequence: CAAACTAGGTCACCGGAAGGTCAAAGTTCGCATG
satisfied

Moving on to the next sequence: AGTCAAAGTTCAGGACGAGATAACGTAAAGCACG
not satisfied

Moving on to the next sequence: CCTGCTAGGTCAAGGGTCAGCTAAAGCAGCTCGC
satisfied

Moving on to the next sequence: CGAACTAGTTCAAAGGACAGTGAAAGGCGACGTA
not satisfied

Moving on to the next sequence: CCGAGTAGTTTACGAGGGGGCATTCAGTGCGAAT
not satisfied

Moving on to the next sequence: TATACAGGGTCTAAGGCCAGAGTACGAATGTCGA
not satisfied

Moving on to the next sequence: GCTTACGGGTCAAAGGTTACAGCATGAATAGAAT
satisfied

Moving on to the next sequence: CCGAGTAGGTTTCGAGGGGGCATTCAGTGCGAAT
not satisfied

Moving on to the next sequence: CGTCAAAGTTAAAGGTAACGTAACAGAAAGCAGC
not satisfied

Moving on to the next sequence: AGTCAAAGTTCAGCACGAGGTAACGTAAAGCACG
satisfied

Moving on to the next sequence: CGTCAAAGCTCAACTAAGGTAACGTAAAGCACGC
not satisfied

Moving on to the next sequence: ATATGTAGGTTAGCTGGCGTCATTCAGACTAGGC
not satisfied

Moving on to the next sequence: TCGAGTAGGTTACGGGGGTATTCAGGGATGAAGA
not satisfied

Moving on to the next sequence: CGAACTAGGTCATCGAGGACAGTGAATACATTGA
satisfied

Moving on to the next sequence: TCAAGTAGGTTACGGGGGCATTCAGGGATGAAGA
not satisfied

Moving on to the next sequence: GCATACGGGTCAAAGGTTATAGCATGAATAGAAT
satisfied

Moving on to the next sequence: GATACAGGGTCAGCTAGAGGGCAGAGTATGGAAA
satisfied

Moving on to the next sequence: CCGAGTAGATTACGAGGGGGCATTCAGTGCGAAT
not satisfied

Moving on to the next sequence: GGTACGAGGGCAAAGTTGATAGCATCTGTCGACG
not satisfied

Moving on to the next sequence: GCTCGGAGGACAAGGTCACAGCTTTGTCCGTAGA
satisfied

Moving on to the next sequence: CCGAGTAGGTTACGATGGGGCATTCAGTGCGAAT
not satisfied

---

Exercise: state measured PBM binding z-score for each of the sequences provided.
- Tested on: RARa:RXR (NR concentration 270 nM, RXRa partner concentration 90 nM)
- experimentSummary: PBM binding z-score (relative to random genomic background probes); higher = stronger binding; sequences stand for … in GC…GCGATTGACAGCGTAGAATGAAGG

PBM binding z-score lookup needed for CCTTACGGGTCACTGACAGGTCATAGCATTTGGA , thanks.
6.69

Moving on to the next sequence: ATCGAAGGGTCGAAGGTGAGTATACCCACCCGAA
2.48

Moving on to the next sequence: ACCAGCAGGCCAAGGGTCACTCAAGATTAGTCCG
3.93

Moving on to the next sequence: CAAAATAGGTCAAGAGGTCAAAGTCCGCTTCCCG
7.5

Moving on to the next sequence: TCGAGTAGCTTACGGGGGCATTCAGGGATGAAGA
1.47

Moving on to the next sequence: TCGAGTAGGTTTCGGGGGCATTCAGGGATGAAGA
2.22

Moving on to the next sequence: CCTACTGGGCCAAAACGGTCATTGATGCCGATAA
-0.365

Moving on to the next sequence: CGAACTAGGTCATAGGACAGTGAAAGGCGACGTA
2.17

Moving on to the next sequence: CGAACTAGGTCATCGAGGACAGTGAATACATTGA
2.26

Moving on to the next sequence: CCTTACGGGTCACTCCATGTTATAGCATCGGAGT
3.26

Moving on to the next sequence: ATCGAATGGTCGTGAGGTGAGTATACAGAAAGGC
0.113

Moving on to the next sequence: ATATCTAGGTTAGGGTCATTCAGAAAGTAGGGAA
4.78

Moving on to the next sequence: CGTCCAAGGGCAATGCTAGGTCAGTGAAAGCATT
1.55

Moving on to the next sequence: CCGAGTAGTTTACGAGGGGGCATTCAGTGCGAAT
2.06

Moving on to the next sequence: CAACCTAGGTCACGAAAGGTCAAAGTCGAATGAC
6.93

Moving on to the next sequence: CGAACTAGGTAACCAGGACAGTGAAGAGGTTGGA
-0.0151

Moving on to the next sequence: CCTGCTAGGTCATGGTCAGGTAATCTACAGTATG
2.55

Moving on to the next sequence: TCGAGTAGGTTACGGAGGCATTCAGGGATGAAGA
0.547

Moving on to the next sequence: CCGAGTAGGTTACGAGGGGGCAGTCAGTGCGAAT
2.38

Moving on to the next sequence: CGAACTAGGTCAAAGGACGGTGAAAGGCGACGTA
2.05

Moving on to the next sequence: ATATGTAGGTTAGGGTCATTCATAAAGTAGGGAA
4.99

Moving on to the next sequence: TTACCAAGGTAAAAGGTCGTTGATGCACGCCTTG
4.08

Moving on to the next sequence: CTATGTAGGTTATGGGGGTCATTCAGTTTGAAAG
6.28

Moving on to the next sequence: ATATGTAGGTTAGGGCCATTCAGAAAGTAGGGAA
0.535

Moving on to the next sequence: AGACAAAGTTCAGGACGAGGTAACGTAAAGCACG
3.06

Moving on to the next sequence: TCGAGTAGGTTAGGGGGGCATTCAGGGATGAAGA
3.47

Moving on to the next sequence: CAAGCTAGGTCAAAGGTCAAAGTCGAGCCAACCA
9.03

Moving on to the next sequence: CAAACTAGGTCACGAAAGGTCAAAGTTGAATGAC
7.79

Moving on to the next sequence: CGAACTAGGTCAAAGGACACTGAAAGGCGACGTA
2.85

Moving on to the next sequence: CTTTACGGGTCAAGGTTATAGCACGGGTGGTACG
4.6

Moving on to the next sequence: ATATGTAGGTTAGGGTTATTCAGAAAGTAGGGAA
2.55

Moving on to the next sequence: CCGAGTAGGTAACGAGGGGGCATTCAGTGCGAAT
2.24

Moving on to the next sequence: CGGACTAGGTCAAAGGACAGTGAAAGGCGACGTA
2.41

Moving on to the next sequence: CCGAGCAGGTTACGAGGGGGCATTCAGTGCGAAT
3.16

Moving on to the next sequence: TCGAGTAGGTTACGGGGGCTTTCAGGGATGAAGA
1.99

Moving on to the next sequence: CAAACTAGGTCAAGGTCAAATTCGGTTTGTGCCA
5.82

Moving on to the next sequence: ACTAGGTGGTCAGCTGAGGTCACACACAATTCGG
4.73

Moving on to the next sequence: CGAACTATGTCACCAGGACAGTGAAGAGGTTGGA
0.322

Moving on to the next sequence: TAGCCTAGGTGATTGGGCCAGTATAGTACGCATC
-0.276

Moving on to the next sequence: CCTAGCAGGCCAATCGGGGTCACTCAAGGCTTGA
6.08

Moving on to the next sequence: TTACCAAGGTGAAGGTCGTGGATCCCTCTGTAGA
2.38

Moving on to the next sequence: TCGAGTAGGTTACGGGGGCATTTAGGGATGAAGA
3.29

Moving on to the next sequence: CGAACTAGGTCACCAGGACAGTGAGGAGGTTGGA
1.93

Moving on to the next sequence: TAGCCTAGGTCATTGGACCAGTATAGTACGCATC
2.35

Moving on to the next sequence: TCGCGTAGGTTACGGGGGCATTCAGGGATGAAGA
3.42

Moving on to the next sequence: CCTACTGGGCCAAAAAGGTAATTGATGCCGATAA
0.114

Moving on to the next sequence: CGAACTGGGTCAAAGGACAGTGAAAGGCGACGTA
2.12

Moving on to the next sequence: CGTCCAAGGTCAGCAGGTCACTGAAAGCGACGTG
6.22

Moving on to the next sequence: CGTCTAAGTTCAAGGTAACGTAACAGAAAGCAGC
2.09

Moving on to the next sequence: CAAACTAGGTCACGAAAGGTCAAAGCCGAATGAC
7.57

Moving on to the next sequence: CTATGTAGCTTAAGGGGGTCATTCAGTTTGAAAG
5.18
